assay: In vivo pharmacokinetics and brain distribution in mice; settings: male, CD1, plasma; Mouse, IV, 2 mg kg^-1; read-out: Vss
Observation type: Vd (L/kg)
Unit L/kg implied. Number only.

Quick note, Vd for CN1CCN(Cc2ccc(NC(=O)c3cncc(C#Cc4cnc5cccnn45)c3)cc2C(F)(F)F)CC1 [HSN748] landed at 3.9

====

experiment: In vivo pharmacokinetics in rats; design: species or system rat; settings: male, Sprague-Dawley, plasma; Rat, PO, 50 mg kg^-1
Observation type: CL/F (mL/min/kg)
Unit mL/min/kg implied. Number only.

Quick note, CL/F for `CN1CCN(Cc2ccc(NC(=O)c3cncc(C#Cc4cnc5cccnn45)c3)cc2C(F)(F)F)CC1` landed at 46.8

// data source = paper PMC12147034
